Reference source: ChEMBL document CHEMBL1130262

biological target: UniProt P07858
TEST_READOUT: IC50

Notebook entry, UniProt P07858 assay: IC50 of CC(NC(=O)[C@H](CC(=O)N(C)C)NC(=O)[C@@H](NC(=O)CC(C)(C)C)C(C)(C)C)C(=O)c1nc2ccccc2s1 (some centres not stated) = ? 19 µM

Notebook entry, UniProt P07858 assay: IC50 of CC(NC(=O)[C@H](CC(=O)N(C)C)NC(=O)[C@@H](NC(=O)CC(C)(C)C)C(C)(C)C)C(=O)c1nc2ccccc2o1 (some centres not stated) = ? > 300 µM

* * *

// each record: one item and its IC50 for Cathepsin B (Homo sapiens)

# annotated cases, reported IC50 shown
compound="Cc1ccc2oc(C(=O)C(C)NC(=O)[C@H](CC(=O)N(C)C)NC(=O)[C@@H](NC(=O)CC(C)(C)C)C(C)(C)C)nc2c1 (stereo not given in full)" value_observed="> 300 µM"
compound=C[C@H](NC(=O)[C@H](CC(=O)N(C)C)NC(=O)[C@@H](NC(=O)CC(C)(C)C)C(C)(C)C)C(=O)C(F)(F)C(=O)NCc1ccccc1 value_observed="> 300 µM"
compound="CC(NC(=O)[C@H](CC(=O)N(C)C)NC(=O)[C@@H](NC(=O)CC(C)(C)C)C(C)(C)C)C(=O)C(F)(F)C(F)(F)F (stereo not given in full)" value_observed="> 300 µM"
compound="Cc1cccc2oc(C(=O)C(C)NC(=O)[C@H](CC(=O)N(C)C)NC(=O)[C@@H](NC(=O)CC(C)(C)C)C(C)(C)C)nc12 (stereo not given in full)" value_observed="> 300 µM"

API: the following record is the query input.
Notebook entry, Cathepsin B (Homo sapiens) assay: IC50 of Cc1ccc2nc(C(=O)C(C)NC(=O)[C@H](CC(=O)N(C)C)NC(=O)[C@@H](NC(=O)CC(C)(C)C)C(C)(C)C)oc2c1 (stereo not given in full) = ? 225 µM
